// data source = patent US20220080036A1

Recorded EC50, one value per entry.
target-entity: T1, IsdA (iron-regulated surface determinant protein A), recombinant (Staphylococcus aureus, UniProt P0C1S5 58-316)
T1 construct: also called recombinant IsdA; Isd antigen
T1 chain: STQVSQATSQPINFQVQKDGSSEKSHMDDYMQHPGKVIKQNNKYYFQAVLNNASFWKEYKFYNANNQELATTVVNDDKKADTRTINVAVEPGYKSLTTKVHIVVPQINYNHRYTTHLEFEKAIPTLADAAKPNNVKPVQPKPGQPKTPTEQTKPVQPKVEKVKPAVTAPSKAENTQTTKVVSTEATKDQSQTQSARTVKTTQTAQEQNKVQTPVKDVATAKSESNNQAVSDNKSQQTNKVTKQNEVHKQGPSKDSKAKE
assay-comment: ELISA on coated recombinant antigen, half-maximal binding
Give the number; µg/mL is assumed, so skip it.

* STAU-280 (antibody, V domains shown) VH: EVQLVESGGGLVQTGGSLRLSCAASGFTFSRYNMNWVRQAPGKGLEWVSFISATSSSIYYADSVKGRFTISRDNAKNSLDLQMNSLRDEDTAVYFCVREDAAIFGVGSWFDPWGQGTLVTVSS VL: EIVMTQSPATLSVSPGERATLSCRASQSVSSNLAWYQQKPGQAPRLLIYGASTRATGIPARFSGSGSGTEFTLTISSLQSEDFAVYFCQEYNDWPLYTFGQGTKLEIK | 52.1

Quote EC50 reported for STAU-201 (antibody, V domains shown) VH: QVQLVQSGPEVKKPGASVKVSCKASGYTFTNYGLTWVRQAPGKGLEWIGWISPYTGRAKFALKFQGRFTLTTDTSTTTAYMEVRSLKSDDSAVYYCAREGIKDASAFDFWGQGTLVTVSS VL: QSALTQPASVSGSPGQSITISCTGTGSDIGGYNHVSWYHHYPGKAPKLLIFGVTHRPSGVSDRFSGSKSGVTAFLTISGLQAEDEADYYCSSYTDNTSWVFGGGTKVTVL please.
0.26
